- Test system: Amaranthus palmeri (AMAPA)
- procedure.details: Postemergence herbicide evaluation, percent reduction in plant size vs untreated control, 21 days after treatment
- Type: in vivo, Amaranthus palmeri (Palmer amaranth)
- condition: post-emergence, 504 h, AMAPA, rate 140 g ae/ha, postemergence, read-out: Control/Injury
- Procedure: Plants were grown in a soil media composed of 90% by volume Promix BX (Premier Tech Horticulture, Quakertown, PA) and 10% Profile Greens Grade (Profile Products LLC, Buffalo Grove, IL). […] In conformity with the methods outlined in Example 49, the effect of representative experimental compounds on the growth of Amaranthus palmeri (AMAPA), common name, Palmer amaranth, was determined at 2 different levels (respectively, 140 and 280 g acid equivalent (ae)/ha) of the experimental actives tested. […]
// assign yes if pest or weed control at 140 g/ha falls strictly below 50%, else no (ties count as no)

1) COc1c(Cl)ccc(Cl)c1C(=O)NOCc1ccccc1 | yes
2) COc1c(Cl)ccc(Cl)c1C(=O)ONC(=O)c1cccnc1 | no
3) COc1c(Cl)ccc(Cl)c1C(=O)O/N=C(/C)N | no
4) COc1c(Cl)ccc(Cl)c1C(=O)NNc1ccc([N+](=O)[O-])cc1 | yes
5) CCCCCCNC(=O)c1c(Cl)ccc(Cl)c1OC | yes
6) COc1c(Cl)ccc(Cl)c1C(=O)O/N=C(\N)c1ccccc1 | no
7) COc1c(Cl)ccc(Cl)c1C(=O)n1oc2ccccc2c1=O | yes
8) COc1c(Cl)ccc(Cl)c1C(=O)O/N=C/c1cc(/C=N/OC(=O)c2c(Cl)ccc(Cl)c2OC)cc(/C=N/OC(=O)c2c(Cl)ccc(Cl)c2OC)c1 | no

* * *

- Tested on: Amaranthus rudis (AMATA)
- procedure.details: Postemergence herbicide evaluation, percent reduction in plant size vs untreated control, 21 days after treatment
- Format: in vivo, Amaranthus rudis (tall water hemp)
- condition: Amaranthus tuberculatus, post-emergence, 504 h, AMATA, rate 280 g ae/ha, postemergence; read-out: Control/Injury
// assign 1 (yes) if pest or weed control at 280 g/ha falls strictly below 50%, else 0 (no) (ties count as 0 (no))

1) COc1c(Cl)ccc(Cl)c1C(=O)Oc1cc2ccccc2n1C [Compound A-117] | 0 (no)
2) COc1c(Cl)ccc(Cl)c1C(=O)NOC1CCCCO1 (stereo not shown) [Compound A-100] | 1 (yes)
3) COc1c(Cl)ccc(Cl)c1C(=O)NS(=O)(=O)c1nccn1C [Compound A-79] | 1 (yes)
4) COc1c(Cl)ccc(Cl)c1C(=O)n1cnc2ccccc21 [Compound A-115] | 1 (yes)
5) COc1c(Cl)ccc(Cl)c1C(=O)Oc1nc(-c2ccccc2)cs1 [Compound A-120] | 0 (no)
6) COc1c(Cl)ccc(Cl)c1C(=O)NN1CCOCC1 [Compound A-127] | 1 (yes)
7) COc1c(Cl)ccc(Cl)c1C(=O)Oc1cc(C(F)(F)F)n(C)n1 [Compound A-118] | 0 (no)
8) COc1c(Cl)ccc(Cl)c1C(=O)Oc1ncn(-c2ccccc2)n1 [Compound A-121] | 0 (no)
9) COc1c(Cl)ccc(Cl)c1C(=O)O/N=C/c1ccco1 [Compound A-88] | 0 (no)
10) CCCC[C@H](CC)COC(=O)c1c(Cl)ccc(Cl)c1OC [Compound A-137] | 1 (yes)
11) COc1c(Cl)ccc(Cl)c1C(=O)ON1C(=O)c2ccccc2C1=O [Compound A-74] | 0 (no)
12) COc1c(Cl)ccc(Cl)c1C(=O)n1nc(C)cc1C [Compound A-133] | 1 (yes)
13) COc1c(Cl)ccc(Cl)c1C(=O)Nc1ncccn1 [Compound A-62] | 0 (no)
14) CCc1nnc(OC(=O)c2c(Cl)ccc(Cl)c2OC)s1 [Compound A-119] | 1 (yes)
15) COc1c(Cl)ccc(Cl)c1C(=O)OCc1cc(COC(=O)c2c(Cl)ccc(Cl)c2OC)cc(COC(=O)c2c(Cl)ccc(Cl)c2OC)c1 [Compound A-123] | 1 (yes)
16) COc1c(Cl)ccc(Cl)c1C(=O)ONC(N)=O [Compound A-67] | 1 (yes)
17) COc1c(Cl)ccc(Cl)c1C(=O)Oc1cncnc1 [Compound A-66] | 1 (yes)

* * *

Listing of entries alongside the reported Volatility.
- procedure.details: Volatility of compounds measured by thermogravimetric analysis (TGA), rate of weight loss
- Type: physicochemical
- condition: estimates of volatility
measurement.type: Volatility

1. COc1c(Cl)ccc(Cl)c1C(=O)Nc1ccnn1C | 0.01 ng/min
2. COc1c(Cl)ccc(Cl)c1C(=O)O/N=C(\N)CC(C)C | 0.086 ng/min
3. COc1c(Cl)ccc(Cl)c1C(=O)O/N=C(\N)c1cccnc1 | 0.09 ng/min
4. COc1c(Cl)ccc(Cl)c1C(=O)OCCOCCOC(=O)c1c(Cl)ccc(Cl)c1OC | 0.24 ng/min
5. COc1c(Cl)ccc(Cl)c1C(=O)O/N=C(\N)c1cncnc1 | 0.022 ng/min
6. COc1c(Cl)ccc(Cl)c1C(=O)O/N=C(\N)Cc1ccccc1 | 0.189 ng/min
7. COc1c(Cl)ccc(Cl)c1C(=O)O/N=C(\SC)c1ccccc1 | 0.28 ng/min
8. COc1c(Cl)ccc(Cl)c1C(=O)O/N=C(\N)C1CCCCC1 | 0.064 ng/min
9. COc1ccc(/C(N)=N/OC(=O)c2c(Cl)ccc(Cl)c2OC)cc1 | 0.04 ng/min
10. COc1c(Cl)ccc(Cl)c1C(=O)O/N=C(\N)c1ccc2ccoc2c1 | 0.0034 ng/min
11. COc1c(Cl)ccc(Cl)c1C(=O)O/N=C(\N)C(C)C | 0.38 ng/min
12. COc1c(Cl)ccc(Cl)c1C(=O)O/N=C(\N)c1ccc(C)cc1 | 0.026 ng/min
13. COc1c(Cl)ccc(Cl)c1C(=O)O/N=C(\N)c1ccc2ccccc2c1 | 0.008 ng/min
14. COc1c(Cl)ccc(Cl)c1C(=O)O/N=C(\N)c1ccccn1 | 0.039 ng/min
15. COc1c(Cl)ccc(Cl)c1C(=O)O/N=C(\N)c1ccccc1Cl | 0.012 ng/min
16. COc1c(Cl)ccc(Cl)c1C(=O)O/N=C(\N)c1ccccc1 [Compound A-150] | 0.08 ng/min
17. COc1c(Cl)ccc(Cl)c1C(=O)NOCc1ccccc1 | 0.08 ng/min
18. COc1c(Cl)ccc(Cl)c1C(=O)O/N=C/c1ccco1 | 0.35 ng/min
19. COc1c(Cl)ccc(Cl)c1C(=O)OCc1ccc(COC(=O)c2c(Cl)ccc(Cl)c2OC)cc1 | 0.08 ng/min

* * *

Listing of entries alongside the reported pest or weed control at 140 g/ha.
- System: Amaranthus palmeri (AMAPA)
- procedure.details: Postemergence herbicide evaluation, percent reduction in plant size vs untreated control, 21 days after treatment
- Format: in vivo, Amaranthus palmeri (Palmer amaranth)
- condition: post-emergence, 504 h, AMAPA, rate 140 g ae/ha, postemergence, read-out: Control/Injury
measurement.type: pest or weed control at 140 g/ha (%)

1) COc1c(Cl)ccc(Cl)c1C(=O)Oc1nccs1 [Compound A-103] | 35
2) COc1c(Cl)ccc(Cl)c1C(=O)Oc1cc2ccccc2n1C [Compound A-117] | 83
3) COc1c(Cl)ccc(Cl)c1C(=O)N(C)OC [Compound A-129] | 8
4) COc1c(Cl)ccc(Cl)c1C(=O)Oc1noc2ccccc12 [Compound A-122] | 28
5) COc1c(Cl)ccc(Cl)c1C(=O)n1ccnc1 [Compound A-126] | 33
6) COc1c(Cl)ccc(Cl)c1C(=O)OCc1cc(COC(=O)c2c(Cl)ccc(Cl)c2OC)cc(COC(=O)c2c(Cl)ccc(Cl)c2OC)c1 [Compound A-123] | 2
7) COc1c(Cl)ccc(Cl)c1C(=O)O [Dicamba, 3,6-dichloro-2-methoxybenzoic acid, reference compound] | 78
8) COc1c(Cl)ccc(Cl)c1C(=O)NNc1nc2ccccc2o1 [Compound A-109] | 8
9) CCCNNC(=O)c1c(Cl)ccc(Cl)c1OC [Compound A-112] | 18

* * *

- Tested on: Amaranthus palmeri (AMAPA)
- procedure.details: Postemergence herbicide evaluation, percent reduction in plant size vs untreated control, 21 days after treatment
- Assay type: in vivo, Amaranthus palmeri (Palmer amaranth)
- condition: post-emergence, 504 h, AMAPA, rate 140 g ae/ha, postemergence, read-out: Control/Injury
measurement.type: pest or weed control at 140 g/ha (%)

1) COc1c(Cl)ccc(Cl)c1C(=O)NCc1ccccc1 | 5
2) COc1c(Cl)ccc(Cl)c1C(=O)Nc1ccon1 | 25
3) COc1c(Cl)ccc(Cl)c1C(=O)N1C(=O)C(=O)c2ccccc21 | 8
4) COc1c(Cl)ccc(Cl)c1C(=O)NOc1ccccc1 | 4
5) COc1c(Cl)ccc(Cl)c1C(=O)n1cnc2ccccc21 | 20
6) COc1c(Cl)ccc(Cl)c1C(=O)NNc1nc(C)cs1 | 8
7) COc1c(Cl)ccc(Cl)c1C(=O)NN1CCOCC1 | 20
8) COc1c(Cl)ccc(Cl)c1C(=O)N1CCCCO1 | 45
9) COc1c(Cl)ccc(Cl)c1C(=O)NNCc1ccccc1 | 20
10) CCN(CC)C(=O)c1c(Cl)ccc(Cl)c1OC | 9
